src = patent US7074789B2

target: EGFR (Homo sapiens); construct: Kinases are expressed as either kinase domains or full length constructs; made in house; test: Kinase inhibition assay (33P transfer), EGFR; assay type: biochemical; details: Table 2, class symbols A-E; read-out: EGFR-1
Sequence (P00533 25-1210, species assumed): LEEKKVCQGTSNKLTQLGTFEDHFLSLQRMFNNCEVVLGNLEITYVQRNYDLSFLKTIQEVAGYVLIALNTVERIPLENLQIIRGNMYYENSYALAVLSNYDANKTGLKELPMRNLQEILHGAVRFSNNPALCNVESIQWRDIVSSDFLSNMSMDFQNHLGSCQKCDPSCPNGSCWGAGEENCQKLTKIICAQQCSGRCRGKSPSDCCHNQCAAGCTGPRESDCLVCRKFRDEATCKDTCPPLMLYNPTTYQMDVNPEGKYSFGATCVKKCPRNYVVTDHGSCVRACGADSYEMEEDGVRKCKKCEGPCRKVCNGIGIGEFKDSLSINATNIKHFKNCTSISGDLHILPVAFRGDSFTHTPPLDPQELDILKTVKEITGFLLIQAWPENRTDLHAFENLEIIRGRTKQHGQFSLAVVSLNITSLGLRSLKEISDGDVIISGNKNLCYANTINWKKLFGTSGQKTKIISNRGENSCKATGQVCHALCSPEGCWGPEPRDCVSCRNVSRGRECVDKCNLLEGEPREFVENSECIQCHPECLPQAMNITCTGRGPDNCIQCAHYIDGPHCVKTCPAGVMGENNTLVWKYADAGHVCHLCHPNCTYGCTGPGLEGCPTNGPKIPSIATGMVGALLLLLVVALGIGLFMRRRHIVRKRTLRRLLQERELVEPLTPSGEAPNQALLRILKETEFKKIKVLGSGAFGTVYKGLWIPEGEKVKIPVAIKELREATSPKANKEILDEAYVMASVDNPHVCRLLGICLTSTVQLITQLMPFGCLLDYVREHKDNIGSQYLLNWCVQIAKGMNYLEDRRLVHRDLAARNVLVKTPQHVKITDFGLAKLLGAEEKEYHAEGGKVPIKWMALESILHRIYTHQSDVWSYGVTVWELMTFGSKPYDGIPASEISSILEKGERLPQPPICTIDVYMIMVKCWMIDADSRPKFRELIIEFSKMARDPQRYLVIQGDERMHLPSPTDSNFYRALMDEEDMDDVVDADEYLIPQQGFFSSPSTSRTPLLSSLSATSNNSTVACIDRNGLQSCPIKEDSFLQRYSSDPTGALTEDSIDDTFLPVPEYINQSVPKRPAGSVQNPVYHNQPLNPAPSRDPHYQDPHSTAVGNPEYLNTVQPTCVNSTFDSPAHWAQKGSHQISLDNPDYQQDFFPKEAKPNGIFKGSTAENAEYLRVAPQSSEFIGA
pIC50: −log10 of the molar value.
reported endpoint: pIC50

// worked examples, pIC50 included
>>> observed("COC(=O)c1ccc(-c2cc(Nc3ncnc(NCc4cccnc4)n3)[nH]n2)cc1")
"< 4.95"
>>> observed("COc1ccc(CNc2ncnc(Nc3cc(-c4ccco4)n[nH]3)n2)cc1")
"< 4.91"
>>> observed("COC(=O)c1ccc(-c2cc(Nc3ncnc(NCc4ccccc4OC)n3)[nH]n2)cc1")
"< 4.98"
>>> observed("COc1ccc(Nc2ncnc(N(C)c3ccc(C)cc3)n2)cc1OC")
"> 5.94"
>>> observed("CN(c1cccc(Cl)c1)c1ncnc(Nc2ccc(OC(F)(F)F)cc2)n1")
"5.22 to 6.00"
>>> observed("COc1ccc(Nc2ncnc(NCc3ccc(C)c(Cl)c3)n2)cc1OC")
"< 4.93"
>>> observed("COc1ccc(Nc2ncnc(Nc3cc(Cl)cc(Cl)c3)n2)cc1OC")
"5.05 to 5.21"
>>> observed("O=C(O)/C=C/c1ccc(Nc2ncnc(Nc3cc(-c4ccco4)[nH]n3)n2)cc1")
"> 5.99"
>>> observed("COC(=O)c1ccc(N(C)c2ncnc(Nc3ccc(OC)c(OC)c3)n2)cc1")
"< 4.94"
>>> observed("COC(=O)c1ccc(-c2cc(Nc3ncnc(Nc4cc(F)cc(F)c4)n3)[nH]n2)cc1")
"< 4.97"

Lab note: next compound to report on.
Problem: For the compound `Cc1cccc(Nc2ncnc(N(C)c3ccc4c(cnn4Cc4ccccc4)c3)n2)c1` , what pIC50 is on record?
Solution: > 6.02

----------
Molecular target: Zap-70 (Homo sapiens, UniProt P43403)
Construct: Kinases are expressed as either kinase domains or full length constructs; made in house
Sequence (P43403 1-619): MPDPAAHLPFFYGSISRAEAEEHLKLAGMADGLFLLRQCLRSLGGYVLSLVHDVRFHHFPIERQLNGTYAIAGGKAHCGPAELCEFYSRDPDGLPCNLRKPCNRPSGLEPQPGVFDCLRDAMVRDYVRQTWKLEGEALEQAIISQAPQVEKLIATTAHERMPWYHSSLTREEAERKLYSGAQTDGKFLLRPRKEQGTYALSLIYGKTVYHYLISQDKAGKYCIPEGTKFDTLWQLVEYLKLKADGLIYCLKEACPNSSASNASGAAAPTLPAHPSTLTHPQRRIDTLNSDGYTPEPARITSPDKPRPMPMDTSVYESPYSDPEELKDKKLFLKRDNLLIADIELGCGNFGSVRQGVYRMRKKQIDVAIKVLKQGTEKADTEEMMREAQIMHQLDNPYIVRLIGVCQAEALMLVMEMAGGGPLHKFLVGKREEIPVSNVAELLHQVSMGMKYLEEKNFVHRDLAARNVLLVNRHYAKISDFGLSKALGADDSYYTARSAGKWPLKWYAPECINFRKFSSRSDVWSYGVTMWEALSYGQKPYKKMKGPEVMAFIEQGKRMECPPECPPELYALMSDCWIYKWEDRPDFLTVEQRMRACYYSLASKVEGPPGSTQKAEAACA
Test: Kinase inhibition assay (33P transfer), Zap-70
Assay type: biochemical
Settings: read-out: Zap-1
pIC50: −log10 of the molar value.
reported endpoint: pIC50

Use the examples below as a reference point.
>>> observed("COc1cc(Nc2ncnc(-n3c(NC4c5ccccc5CC4O)nc4ccccc43)n2)cc(OC)c1OC (stereo not drawn)")
"< 5.07"
>>> observed("NC(=O)c1ccc(Nc2ncnc(-c3cccnc3NCc3ccccc3)n2)cc1")
"5.22 to 6.00"
>>> observed("COc1cccc(Nc2ncnc(N(C)c3cccc(Cl)c3)n2)c1")
"< 4.88"
>>> observed("COC(=O)Cc1cccc(Nc2ncnc(-n3c(NCc4ccccn4)nc4ccccc43)n2)c1")
"< 5.02"
>>> observed("COc1ccc(Nc2ncnc(NCCCN3CCCCC3C)n2)cc1OC (stereo not drawn)")
"< 4.93"
>>> observed("CN(c1cccc(Cl)c1)c1ncnc(Nc2ccc(S(C)(=O)=O)cc2)n1")
"< 4.94"
>>> observed("C=CCNC(=O)c1ccc(-c2cc(Nc3ncnc(Nc4cc(OC)c(OC)c(OC)c4)n3)[nH]n2)cc1")
"< 5.05"
>>> observed("COc1cc(Nc2ncnc(-n3c(NCc4ccc(C)cc4C)nc4ccccc43)n2)cc(OC)c1OC")
"< 5.06"

Problem: pIC50 lookup needed for `Cc1cccc(Nc2ncnc(Nc3cc(-c4ccccc4)n[nH]3)n2)c1` , thanks.
Solution: 4.88 to 4.99
